system: HCT-8 host cells (Hs18S); details: primary screening at 10 uM, treated vs control
Measured attribute: Hs18S ΔCT
# output: bare number, no unit

Q: Recorded Hs18S ΔCT of O=c1ccn([C@@H]2O[C@H](COP(=O)([O-])OP(=O)([O-])OP(=O)([O-])O)[C@@H](O)[C@H]2O)c(=O)[nH]1.[Na+].[Na+].[Na+] [URIDINE TRIPHOSPHATE TRISODIUM] , please.
Ans: 0.23

Q: Continue with CC1=CC(=O)[C@H]2C(C)(C)CCC[C@]2(C)[C@@]1(O)CCc1ccoc1 [SOLIDAGENONE]
Ans: 0.73

Q: Continue with CC[C@H]1[C@@H]2C[C@H]3[C@@H]4N(C)c5ccccc5[C@]45C[C@@H]([C@H]2[C@H]5O)N3[C@@H]1O [AJMALINE]
Ans: 0.10

The reported measurements were obtained from paper PMC6736568.
